Reported selectivity ratio is given for each of the following molecules.
# Tested on: human mitochondrial ribosome (Mit 13 hybrid)
# assay: Selectivity ratio of IC50 for inhibition of human mitochondrial ribosome Mit 13 hybridized with Mycobacterium smegmatis ribosome to IC50 for inhibition of Mycobacterium smegmatis wild type ribosomes
# Assay type: toxicity
# settings: read-out: Ratio IC50
Answer with the value's number alone.

CCN[C@@H]1C[C@H](N)[C@@H](O[C@H]2OC(CN)=C(SCC)C[C@H]2N)[C@H](O)[C@H]1O[C@H]1OC[C@](C)(O)[C@H](NC)[C@H]1O | 381
NC[C@@H]1O[C@H](O[C@H]2[C@@H](O)[C@H](O[C@@H]3[C@@H](O)[C@H](N)C[C@H](N)[C@H]3O[C@H]3O[C@H](CO)[C@@H](O)[C@H](O)[C@H]3N)O[C@@H]2CO)[C@H](N)[C@@H](O)[C@@H]1O | 3740
CCS[C@H]1[C@H](O)[C@@H](N)[C@@H](O[C@H]2[C@H](O[C@@H]3O[C@H](CO)[C@@H](O[C@H]4O[C@@H](CN)[C@@H](O)[C@H](O)[C@H]4N)[C@H]3O)[C@@H](O)[C@H](N)C[C@@H]2N)O[C@@H]1CO | 3130
CCN[C@@H]1C[C@H](N)[C@@H](O[C@H]2OC(CN)=C(Cl)C[C@H]2N)[C@H](O)[C@H]1O[C@H]1OC[C@](C)(O)[C@H](NC)[C@H]1O | 580
CCN[C@@H]1C[C@H](N)[C@@H](O[C@H]2OC(CN)=CC[C@H]2N)[C@H](O)[C@H]1O[C@H]1OC[C@](C)(O)[C@H](NC)[C@H]1O | 1400
CCCCC1=C(CN)O[C@H](O[C@H]2[C@H](O)[C@@H](O[C@H]3OC[C@](C)(O)[C@H](NC)[C@H]3O)[C@H](NCC)C[C@@H]2N)[C@H](N)C1 | 699

Please indicate recorded selectivity ratio of CCN[C@@H]1C[C@H](N)[C@@H](O[C@H]2OC(CN)=C(c3ccccc3)C[C@H]2N)[C@H](O)[C@H]1O[C@H]1OC[C@](C)(O)[C@H](NC)[C@H]1O measured with human mitochondrial ribosome (Mit 13 hybrid). 106

Supply selectivity ratio measured with human mitochondrial ribosome (Mit 13 hybrid) for CCN[C@@H]1C[C@H](N)[C@@H](O[C@H]2OC(CN)=C(Br)C[C@H]2N)[C@H](O)[C@H]1O[C@H]1OC[C@](C)(O)[C@H](NC)[C@H]1O . 520

Please respond with reported selectivity ratio (system human mitochondrial ribosome (Mit 13 hybrid)) for CCC[C@H]1[C@H](O)[C@@H](N)[C@@H](O[C@H]2[C@H](O[C@@H]3O[C@H](CO)[C@@H](O[C@H]4O[C@@H](CN)[C@@H](O)[C@H](O)[C@H]4N)[C@H]3O)[C@@H](O)[C@H](N)C[C@@H]2N)O[C@@H]1CO . 5390

# lookup: human mitochondrial ribosome (Mit 13 hybrid) selectivity ratio, key = CCN[C@@H]1C[C@H](N)[C@@H](O[C@H]2OC(CN)=C(I)C[C@H]2N)[C@H](O)[C@H]1O[C@H]1OC[C@](C)(O)[C@H](NC)[C@H]1O 490

----------
# assay: Inhibition of human mitochondrial ribosome Mit 13 hybridized with Mycobacterium smegmatis ribosome assessed as inhibition of translation activity using Firefly luciferase mRNA reporter based luminescence analysis
Measured IC50 of individual entries
Record the result as a number with its unit.

Complete the entry with IC50 for CCS[C@H]1[C@H](O)[C@@H](N)[C@@H](O[C@H]2[C@H](O[C@@H]3O[C@H](CO)[C@@H](O[C@H]4O[C@@H](CN)[C@@H](O)[C@H](O)[C@H]4N)[C@H]3O)[C@@H](O)[C@H](N)C[C@@H]2N)O[C@@H]1CO 166 µM

Please indicate IC50 recorded for CCN[C@@H]1C[C@H](N)[C@@H](O[C@H]2OC(CN)=C(I)C[C@H]2N)[C@H](O)[C@H]1O[C@H]1OC[C@](C)(O)[C@H](NC)[C@H]1O 49 µM

Provide IC50 value for the following molecule: CCCCC1=C(CN)O[C@H](O[C@H]2[C@H](O)[C@@H](O[C@H]3OC[C@](C)(O)[C@H](NC)[C@H]3O)[C@H](NCC)C[C@@H]2N)[C@H](N)C1 408 µM

Identify the reported IC50 for the following entry. CCN[C@@H]1C[C@H](N)[C@@H](O[C@H]2OC(CN)=C(SCC)C[C@H]2N)[C@H](O)[C@H]1O[C@H]1OC[C@](C)(O)[C@H](NC)[C@H]1O 256 µM
